Each entry below carries its reported GI50.
# System: 92.1 uveal melanoma cell line (heterozygous GNAQ Q209L)
# protocol text: Cell proliferation assay (resazurin cell viability), 92.1 cell line
# Type: cell-based
# measurement parameters: 92.1 cell line, average of Rep. 1 and 2; read-out: GI50 92.1 Average
Starred links: 1 amine or outer side, 2 acyl side, 3 side chain; linkers in the order of their positions; H or OH if unused. Positions of bridges follow the written chain, without caps; N, C: chain ends. Non-standard residues stand in square brackets, D forms with d. Residues, ends and D or L forms follow the SMILES beside them. *: point of attachment. Leu(3R-O(AcLeu(3R-OH))) = CC(=O)N[C@H](C(=O)O[C@H](C(C)C)[C@H](N)C(=O)O)[C@H](O)C(C)C; Leu(3R-OH,Nα-propionyl) = CCC(=O)N[C@H](C(=O)*)[C@H](O)C(C)C; X1 = CC(C)[C@@H](O[*:3])[C@H](N[*:1])C(=O)[*:2]; X5 = CSC[C@@H](O[*:3])[C@H](N[*:1])C(=O)[*:2]; NMeT = CN[C@H](C(=O)O)[C@@H](C)O; dPhLac = O=C(O)[C@H](O)Cc1ccccc1; NMeA = CN[C@@H](C)C(=O)O; NMeDha = C=C(NC)C(=O)O
// return numeric value only (unit: nM, not printed)

Recorded GI50, per entry:
# molecule, endpoint unit, recorded measurement
records = [
    ("C=C1C(=O)N[C@@H](C)C(=O)N(C)[C@@H](C)C(=O)N[C@@H]([C@H](OC(=O)[C@@H](NC(=O)CC)[C@H](O)C(C)C)C(C)C)C(=O)N(C)[C@@H]([C@@H](C)OC)C(=O)O[C@H](C(C)C)[C@H](NC(C)=O)C(=O)O[C@H](Cc2ccccc2)C(=O)N1C [Compound (A1), FR900359] (Ac-[X1][dPhLac][NMeDha]A[NMeA][X1](Leu(3R-OH,Nα-propionyl))[NMeT](Me); ester 1-C)", "nM", 0.6),
    ("C=C1C(=O)N[C@@H](C)C(=O)N(C)[C@@H](C)C(=O)N[C@@H]([C@H](OC(=O)[C@@H](NC(=O)CC)[C@H](O)C(C)C)C(C)C)C(=O)N(C)[C@@H]([C@@H](C)OC)C(=O)O[C@H](C)[C@H](NC(C)=O)C(=O)O[C@H](Cc2ccccc2)C(=O)N1C [Compound 14] (Ac-T[dPhLac][NMeDha]A[NMeA][X1](Leu(3R-OH,Nα-propionyl))[NMeT](Me); ester 1-C)", "nM", 5.2),
    ("C=C1C(=O)N[C@@H](C)C(=O)N(C)[C@@H](C)C(=O)N[C@@H]([C@H](OC(=O)[C@@H](NC(C)=O)[C@H](O)C(C)C)C(C)C)C(=O)N(C)[C@@H]([C@@H](C)OC)C(=O)O[C@H](C)[C@H](NC(C)=O)C(=O)O[C@H](Cc2ccccc2)C(=O)N1C [Compound 13] (Ac-T[dPhLac][NMeDha]A[NMeA][Leu(3R-O(AcLeu(3R-OH)))][NMeT](Me); ester 1-C)", "nM", 15.7),
]

Query: Look up GI50 for this molecule: C=C1C(=O)N[C@@H](C)C(=O)N(C)[C@@H](C)C(=O)N[C@@H]([C@H](OC(=O)[C@@H](NC(=O)CC)[C@H](O)C(C)C)C(C)C)C(=O)N(C)[C@@H]([C@@H](C)OC)C(=O)O[C@H](CSC)[C@H](NC(C)=O)C(=O)O[C@H](Cc2ccccc2)C(=O)N1C [Compound 2] (Ac-[X5][dPhLac][NMeDha]A[NMeA][X1](Leu(3R-OH,Nα-propionyl))[NMeT](Me); ester 1-C)
Result: 9.8
